Test: xn = mol fraction of the nth substance listed
Conditions: 323.15 K; 100 kPa; Liquid; Vibrating tube method; x1 = 0.25
Entries and their measured mass density follow.
Could you give me the number in kg/m3? Just the number is fine.

CCCCCCn1cc[n+](C)c1C.O=[N+]([O-])c1cn[n-]c1 [1-hexyl-2,3-dimethylimidazolium 4-nitropyrazolide] + CCCCCCCCCCCCCC[P+](CCCCCC)(CCCCCC)CCCCCC.O=S(=O)([N-]S(=O)(=O)C(F)(F)F)C(F)(F)F	1053.5
CCCCCCCC[P+](CC)(CC)CC.O=[N+]([O-])c1cn[n-]c1 [triethyloctylphosphonium 4-nitropyrazolide] + CCCCCCn1cc[n+](C)c1C.O=S(=O)([N-]S(=O)(=O)C(F)(F)F)C(F)(F)F	1257.7
CCCCCCn1cc[n+](C)c1.O=[N+]([O-])c1cn[n-]c1 [1-hexyl-3-methylimidazolium 4-nitropyrazolide] + CCCCCCCCCCCCCC[P+](CCCCCC)(CCCCCC)CCCCCC.O=S(=O)([N-]S(=O)(=O)C(F)(F)F)C(F)(F)F	1053.4

Kindly review the next compound as well.
Inquiry: Any idea what mass density was measured for CCCCCCCC[P+](CC)(CC)CC.O=[N+]([O-])c1cn[n-]c1 [triethyloctylphosphonium 4-nitropyrazolide] + CCCCCC[n+]1ccn(C)c1.O=S(=O)([N-]S(=O)(=O)C(F)(F)F)C(F)(F)F ?
Reply text: 1263.7

All values here come from the NIST ThermoML archive (doi:10.1021/acs.jced.7b00221).
